Assign pIC50 to each entry below.
molecular target: A*0203 (Homo sapiens, UniProt P04439, A173T/D140Y/D185E/D98H/E277Q/G131W/G231S/I119V/I121R/I166T/I218V/L180W/L300P/L318F/N151K/N90K/P208A/P217A/Q86G/Q94H/R138H/R169H/T345S); assay: biochemical; format: binding
No end group written: not given here.
Numbers only, as −log10 of the molar value.

Examples with answers:
>  <Chain>
RLLTLLSVT [Peptide 9013.0076]

>  <Result Number>
5.80

$$$$
>  <Chain>
RLTVTTITV [Peptide 9013.0067]

>  <Result Number>
7.44

$$$$
>  <Chain>
VLAEAMGQV [Peptide 1539.05]

>  <Result Number>
8.49

$$$$
>  <Chain>
QQIEFVSFL [Peptide 1578.16]

>  <Result Number>
7.85

$$$$
>  <Chain>
WLRLLLTASL [Peptide 9013.0116]

>  <Result Number>
7.49

$$$$

Below is a list of sequences. For each, state its recorded pIC50.
1. FLSGCVISYV [Peptide 1578.32]
2. RTLQQLLFV [Peptide 1525.15]

Response given:
8.13
6.72

Dear colleague, could you please provide pIC50 for the sequences listed below?
1. RILQQLLLI [Peptide 1525.20]
2. GVNLSLSCHAV [Peptide 9013.0311]
3. WQRLLLTASV [Peptide 9013.0115]

Response given:
[6.00, 5.59, 7.44]

Record pIC50 for all entries; do not skip any.
1. TLFNVTRNDV [Peptide 9013.0230]
2. VLAEAMSHV [Peptide 1516.08]
3. GLLVGVALI [Peptide 9013.0111]
4. SLNRSDPVT [Peptide 9013.0099]
5. GTQQATPGPV [Peptide 9013.0142]
6. WLNNQSLPV [Peptide 9013.0070]

Response given:
1. 7.60
2. 8.26
3. 7.89
4. 5.60
5. 7.44
6. 8.37

Record pIC50 for all entries; do not skip any.
1. LLFWNPPTTA [Peptide 9013.0123]
2. MAFEYALLA [Peptide 1578.09]
3. QLHTQVLFI [Peptide 9013.0103]
4. FLQGAIISFV [Peptide 1578.27]
5. TVQDVSLEV [Peptide 1593.55]
6. AQYSWLIDGNV [Peptide 9013.0314]
7. ITVNNSGSYV [Peptide 9013.0187]
8. LLLVHNLPQHV [Peptide 9013.0275]

Response given:
1. 8.80
2. 7.13
3. 7.41
4. 8.18
5. 7.25
6. 7.32
7. 6.59
8. 6.19

---

target: DR7 (DRB1*0701) (Homo sapiens, UniProt P01903+P01911, A100R/A102G/A103Q/D57E/D86V/E43K/F76Y/K127E/L162R/M171V/P40G/Q125H/Q99D/R33Q/R42Y/R54Q/S133A/S66F/T210M/V115G/Y107V/Y59L/Y89S); test: biochemical; format: binding
No end group written: not given here.
Observed Property: pIC50
One number for each entry, as −log10 of the molar value.

Examples with their reported pIC50 follow.
>  <Chain>
PEWIEQQTVLQHSFD [Peptide 89.0105]

>  <pIC50>
5.21

$$$$
>  <Chain>
FAGIVTKLPTANNTT [Peptide 89.0175]

>  <pIC50>
5.89

$$$$
>  <Chain>
YRHYQYSLYGKTLEE [Peptide 1543.58]

>  <pIC50>
6.84

$$$$
>  <Chain>
LIQLKCPPILLTTNI [Peptide 89.0038]

>  <pIC50>
6.00

$$$$

Would you mind listing pIC50 for each of the following sequences?
1. IYIIEEDTCTMVTGK [Peptide 90.0204]
2. GVNHQHLPARRAEPQ [Peptide 1543.05]
3. ITFLGALKSFLKGTP [Peptide 89.0034]

Response given:
1: 5.09; 2: 4.77; 3: 5.53

Please go through the list and note pIC50 for each sequence.
1. DIAYKYAQLADVNSN [Peptide 89.0108]
2. QAELETAQALFHAQE [Peptide 89.0022]

Response given:
5.99
5.52

---

target: DRB1*0802 (Homo sapiens, UniProt P01903+P01911, A100R/A103L/A169T/F76Y/H45Y/I96F/K41T/L162R/M171V/P40S/Q125H/Q178H/Q39Y/Q99D/R218S/R42G/S66Y/V115G/W38E); assay: biochemical; format: binding
Observed Property: IC50

// sample CC[C@H](C)[C@H](N)C(=O)N[C@@H](CO)C(=O)N[C@H](C(=O)N[C@H](C(=O)N[C@@H](CC(N)=O)C(=O)N[C@@H](CCC(=O)O)C(=O)N[C@@H](CC(=O)O)C(=O)NCC(=O)N[C@@H](CC(N)=O)C(=O)N[C@@H](CCC(=O)O)C(=O)N[C@H](C(=O)N[C@@H](Cc1ccccc1)C(=O)N[C@@H](CC(N)=O)C(=O)N[C@H](C(=O)N[C@@H](CO)C(=O)O)[C@@H](C)O)[C@@H](C)CC)[C@@H](C)CC)[C@@H](C)CC [Peptide 68.0166] , its IC50 was > 20 µM

---

target: DR7 (DRB1*0701) (Homo sapiens, UniProt P01903+P01911, A100R/A102G/A103Q/D57E/D86V/E43K/F76Y/K127E/L162R/M171V/P40G/Q125H/Q99D/R33Q/R42Y/R54Q/S133A/S66F/T210M/V115G/Y107V/Y59L/Y89S); assay: biochemical; type: binding; conditions: read-out: DRB1*0701
No end group written: not given here.
Give measured pIC50 for each item. Keep answers brief.
One number for each entry, as −log10 of the molar value.

Sample records with pIC50:
>  <Substance>
702.17 (AYAAAKA; also: non-natural residues (20)) [Peptide 702.17]

>  <Observed Property>
pIC50

>  <Result Number>
5.08

$$$$
>  <Substance>
782.03 (YARSQTTLKAKT; also: non-natural residue (15)) [Peptide 782.03]

>  <Observed Property>
pIC50

>  <Result Number>
5.92

$$$$

Now look at this one.
The reported value for 820.02 (YARRQTTLKAAA; also: non-natural residue (15A)) [Peptide 820.02] in terms of pIC50 is 5.08

---

molecular target: DR7 (DRB1*0701) (Homo sapiens, UniProt P01903+P01911, A100R/A102G/A103Q/D57E/D86V/E43K/F76Y/K127E/L162R/M171V/P40G/Q125H/Q99D/R33Q/R42Y/R54Q/S133A/S66F/T210M/V115G/Y107V/Y59L/Y89S); test: biochemical; type: binding
No end group written: not given here.
Exercise: state measured IC50 for each of the sequences provided.
Answers are plain numbers, in µM.

Example results:
>  <Chain>
YKTLFVDVTSTYHWT [Peptide 90.0241]

>  <Observed Property>
IC50

>  <Result Number>
0.647

$$$$
>  <Chain>
PMCMMIEPPKLRSTA [Peptide 90.0034]

>  <Observed Property>
IC50

>  <Result Number>
0.369

$$$$
>  <Chain>
RLTVAKGLSTLLHVP [Peptide 89.0028]

>  <Observed Property>
IC50

>  <Result Number>
0.18

$$$$
>  <Chain>
QEQMLIQPPKIRSPA [Peptide 89.0124]

>  <Observed Property>
IC50

>  <Result Number>
7.22

$$$$
>  <Chain>
LSQVKIPKTITVSTG [Peptide 89.0158]

>  <Observed Property>
IC50

>  <Result Number>
5.83

$$$$

Provide IC50 values for the following items, in order.
1. TGWFEVEAVIERRTG [Peptide 90.0075]
2. CSAIEVQIALESLST [Peptide 90.0018]
3. WCIIGMGVTPSVAEG [Peptide 89.0097]
4. CWTYFDNYMRNALDG [Peptide 89.0090]
5. TAIFGVNPTIAEGFK [Peptide 89.0024]
6. VHEGIRTYFVQFKDD [Peptide 1601.05]

Response given:
1: 4.93; 2: 5.26; 3: 3.55; 4: 2.91; 5: 0.18; 6: 5.73

Hey, can you go through the list below and give me IC50 for every item?
1. RETIEKLLSKLLCVS [Peptide 89.0006]
2. LKVLIQPYSIYAHLQ [Peptide 89.0098]
3. LKGDANILKCLRYRL [Peptide 1601.26]

Response given:
0.187
0.026
9.02

Reported IC50 ( GRVNTHVHNPLLCSS [Peptide 1601.34] ) = 6.02

---

Give A2 for every item shown.
molecular target: A2.1 HLA molecules (Homo sapiens, UniProt P04439, D140Y/D185E/D98H/E176V/E277Q/G131W/G231S/I119V/I121R/I166T/I218V/L300P/L318F/N151K/N90K/P208A/P217A/Q86G/Q94H/R138H/R169H/T345S); type: binding; parameters: scale not given here
No end group written: not given here.
Numbers only.

>  <Chain>
ALAETSYVKV

>  <A2>
0.0150

$$$$
>  <Chain>
GLLGCIITSL

>  <A2>
0.0610

$$$$
>  <Chain>
LMVTVYYGV

>  <A2>
0.4400

$$$$
>  <Chain>
FLLAQFTSA

>  <A2>
0.6600

$$$$

Each of the following entries comes with a recorded value; kindly state A2 for each.
1. YLHTLWKAGV
2. RALAETSYV

Response given:
0.1300
0.0100

Origin of measurements: patent US9340577B2
